Measured values drawn from patent US8957093B2 for this set.

Provide the reported IC50 of each item.
target_desc: GST-PPARG-LBD (Homo sapiens (Human))
Sequence (P37231 238-503): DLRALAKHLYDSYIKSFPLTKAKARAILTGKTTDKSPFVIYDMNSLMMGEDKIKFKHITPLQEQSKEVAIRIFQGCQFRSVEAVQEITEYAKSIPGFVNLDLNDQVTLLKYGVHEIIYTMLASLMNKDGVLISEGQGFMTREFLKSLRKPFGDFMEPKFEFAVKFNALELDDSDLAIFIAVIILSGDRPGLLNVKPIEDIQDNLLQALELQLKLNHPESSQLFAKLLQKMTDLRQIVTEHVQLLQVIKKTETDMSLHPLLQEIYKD
method_summary: Lanthascreen PPARG competitive binding assay (Invitrogen, TR-FRET)
test_parameters: Lanthascreen competitive binding; NA = not active; inc = incomplete curve; read-out: IC50 (nM) Lantha
Experimental: Lanthascreen PPARG Competitive Binding Assay (Invitrogen) The assay was performed according to manufacturer protocol. […] Experiment was performed in triplicate, and incubated for 2 hours in the dark prior to assay read in Perkin Elmer ViewLux ultra HTS microplate reader. FRET signal was measured by excitation at 340 nm and emission at 520 nm for fluorescein and 490 nm for terbium. Fold change over DMSO was calculated using GraphPad Prism Software (La Jolla, Calif.) by calculating 520 nm/490 nm ratio. […]
Kindly answer with a numeric value in nM, unit omitted.

Cc1c(C)n(Cc2ccc(-c3ccccc3C(=O)O)cc2)c2ccc(C(=O)N[C@@H](C)c3ccc(Cl)cc3)cc12 [compound 27] yielded IC50 of 53

CCC[C@H](NC(=O)c1ccc2c(c1)c(C)c(C)n2Cc1ccc(-c2ccccc2C(=O)O)cc1)c1ccccc1 [Example 114] yielded IC50 of 0.8

Cc1c(C)n(Cc2ccc(-c3ccccc3C(=O)O)cc2)c2ccc(C(=O)N[C@@H](C)c3ccc(F)c(F)c3)cc12 [Example 233] yielded IC50 of 9

C[C@H](NC(=O)c1ccc2c(ccn2Cc2ccc(-c3ccccc3C(=O)O)cc2)c1)c1ccc(Br)cc1 [Example 130] yielded IC50 of 163

Cc1c(C)n(Cc2ccc(-c3ccccc3C(=O)O)cc2)c2ccc(C(=O)N[C@H](C)c3ccnc4ccccc34)cc12 [Example 181] yielded IC50 of 512

Cc1c(C)n(Cc2ccc(-c3ccccc3C(=O)O)cc2)c2ccc(C(=O)NCc3ccc(C(C)C)cc3)cc12 [compound 9] yielded IC50 of 23

====

target_desc: Gal-4-PPAR (human PPAR LBD fused to GAL4 DNA-binding domain) (Homo sapiens (Human), UniProt P37231)
method_summary: GAL4-PPARG LBD / UAS-luciferase transactivation assay in HEK 293T cells
Format: cell-based
test_parameters: GAL4 transactivation, HEK 293T cells; NA = not active; read-out: EC50 (nM) GAL4
observed_property: EC50 (nM)
Kindly answer with a numeric value in nM, unit omitted.

CCc1ccc([C@H](C)NC(=O)c2ccc3c(c2)c(C)c(C)n3Cc2ccc(-c3ccccc3C(=O)O)cc2)cc1 yielded EC50 of 1130

Cc1c(C)n(Cc2ccc(-c3ccccc3C(=O)O)cc2)c2ccc(C(=O)N[C@@H](C)c3cc(F)ccc3C(F)(F)F)cc12 yielded EC50 of 453

Cc1c(C)n(Cc2ccc(-c3ccccc3C(=O)O)cc2)c2ccc(C(=O)N[C@H](C)c3cccc(C(F)(F)F)c3Cl)cc12 yielded EC50 of 131

Cc1c(C)n(Cc2ccc(-c3ccccc3C(=O)O)cc2)c2ccc(C(=O)N[C@@H](C)c3cccc(F)c3F)cc12 yielded EC50 of 354

Cc1c(C)n(Cc2ccc(-c3ccccc3C(=O)O)cc2)c2ccc(C(=O)N[C@@H](C)c3ccc(C(F)(F)F)nc3)cc12 yielded EC50 of 2800

Cc1c(C)n(Cc2ccc(-c3ccccc3C(=O)O)cc2)c2ccc(C(=O)NC(C)c3cncc(C4CC4)c3)cc12 (stereo not shown) yielded EC50 of 1480

Cc1c(C)n(Cc2ccc(-c3ccccc3C(=O)O)cc2)c2ccc(C(=O)N[C@@H](C)c3ccc(F)cc3F)cc12 yielded EC50 of 180
